B1: CPEB3 Ribozyme (parent)
chain: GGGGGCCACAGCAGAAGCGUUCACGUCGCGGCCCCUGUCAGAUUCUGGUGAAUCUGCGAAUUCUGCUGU

Variants of: B1
method: self-cleavage, relative activity (ratio to wild type); higher = more cleavage; co-transcriptional
property.label: self-cleavage

>  <changes>
U38G G41C

>  <reported.measurement>
0.226

$$$$
>  <changes>
A10U G48U

>  <reported.measurement>
1

$$$$
>  <changes>
G31C G48U

>  <reported.measurement>
0.247

$$$$
>  <changes>
U38G U46A

>  <reported.measurement>
0.233

$$$$
>  <changes>
C34G C35A

>  <reported.measurement>
0.196

$$$$
>  <changes>
U38C G50C

>  <reported.measurement>
0.942

$$$$
>  <changes>
G1C U36A

>  <reported.measurement>
0.0531

$$$$
>  <changes>
G11U U49G

>  <reported.measurement>
0.98

$$$$
>  <changes>
G4C U64C

>  <reported.measurement>
0.426

$$$$
>  <changes>
C7G C54U

>  <reported.measurement>
0.507

$$$$
>  <changes>
G19C C34U

>  <reported.measurement>
0.209

$$$$
>  <changes>
C34G U43C

>  <reported.measurement>
0.547

$$$$
>  <changes>
U38A C57A

>  <reported.measurement>
0.368

$$$$
>  <changes>
G4C U55A

>  <reported.measurement>
0.261

$$$$
>  <changes>
U46A G47A

>  <reported.measurement>
1.01

$$$$
>  <changes>
A13C U69G

>  <reported.measurement>
0.96

$$$$
>  <changes>
C12U A52G

>  <reported.measurement>
1.01

$$$$
>  <changes>
C24G G37C

>  <reported.measurement>
0.219

$$$$
>  <changes>
C6G A51U

>  <reported.measurement>
0.353

$$$$
>  <changes>
G37A C63A

>  <reported.measurement>
0.228

$$$$
>  <changes>
U61A G65A

>  <reported.measurement>
0.519

$$$$
>  <changes>
U44C U49G

>  <reported.measurement>
0.959

$$$$
>  <changes>
C6U U61G

>  <reported.measurement>
0.809

$$$$
>  <changes>
C7A U44C

>  <reported.measurement>
0.432

$$$$
>  <changes>
A15G G56C

>  <reported.measurement>
0.785

$$$$
>  <changes>
G14A C24U

>  <reported.measurement>
0.2

$$$$
>  <changes>
G3C A51C

>  <reported.measurement>
0.0422

$$$$
>  <changes>
G11U C22A

>  <reported.measurement>
0.129

$$$$
>  <changes>
C32G U67C

>  <reported.measurement>
0.536

$$$$
>  <changes>
U21A U44C

>  <reported.measurement>
0.817

$$$$
>  <changes>
G41C G48C

>  <reported.measurement>
0.869

$$$$
>  <changes>
G3A A16C

>  <reported.measurement>
0.0704

$$$$
>  <changes>
G2C U67A

>  <reported.measurement>
0.0227

$$$$
>  <changes>
U46G G68U

>  <reported.measurement>
0.971

$$$$
>  <changes>
G25C U61G

>  <reported.measurement>
0.176

$$$$
>  <changes>
A15U C22A

>  <reported.measurement>
0.225

$$$$
>  <changes>
A23G U67C

>  <reported.measurement>
0.925

$$$$
>  <changes>
G25U G50U

>  <reported.measurement>
0.151

$$$$
>  <changes>
G19A U49G

>  <reported.measurement>
0.181

$$$$
>  <changes>
A40G C45A

>  <reported.measurement>
0.884

$$$$
>  <changes>
A15G C54A

>  <reported.measurement>
0.914

$$$$
>  <changes>
G3U A51U

>  <reported.measurement>
0.17

$$$$
>  <changes>
U55C G58C

>  <reported.measurement>
0.918

$$$$
>  <changes>
C12A C39G

>  <reported.measurement>
0.346

$$$$
>  <changes>
G2C C45U

>  <reported.measurement>
0.0464

$$$$
>  <changes>
A42G G58A

>  <reported.measurement>
0.951

$$$$
>  <changes>
G3C C9G

>  <reported.measurement>
0.166

$$$$
>  <changes>
G25U C35A

>  <reported.measurement>
0.155

$$$$
>  <changes>
C32A C57G

>  <reported.measurement>
0.27

$$$$
>  <changes>
A8C G48U

>  <reported.measurement>
1.02

$$$$
>  <changes>
G37U U43A

>  <reported.measurement>
0.209

$$$$
>  <changes>
C18G G41C

>  <reported.measurement>
0.0964

$$$$
>  <changes>
A15U G37A

>  <reported.measurement>
0.219

$$$$
>  <changes>
C18U U26C

>  <reported.measurement>
0.732

$$$$
>  <changes>
U26A

>  <reported.measurement>
0.907

$$$$
>  <changes>
U55G U61G

>  <reported.measurement>
0.547

$$$$
>  <changes>
A16C G25U

>  <reported.measurement>
0.103

$$$$
>  <changes>
C7A U55G

>  <reported.measurement>
0.194

$$$$
>  <changes>
A42G A60G

>  <reported.measurement>
0.85

$$$$
>  <changes>
U21A A52C

>  <reported.measurement>
1.03

$$$$
>  <changes>
A16U C33A

>  <reported.measurement>
0.555

$$$$
>  <changes>
U49A A51U

>  <reported.measurement>
1

$$$$
>  <changes>
U21C G58A

>  <reported.measurement>
0.673

$$$$
>  <changes>
C33U C39A

>  <reported.measurement>
0.866

$$$$
>  <changes>
G11U G68U

>  <reported.measurement>
0.856

$$$$
>  <changes>
A16U G41C

>  <reported.measurement>
0.366

$$$$
>  <changes>
C6U A42C

>  <reported.measurement>
0.966

$$$$
>  <changes>
G50U A60U

>  <reported.measurement>
0.515

$$$$
>  <changes>
U21G G50U

>  <reported.measurement>
0.588

$$$$
>  <changes>
C6A C66G

>  <reported.measurement>
0.44

$$$$
>  <changes>
C6G U53A

>  <reported.measurement>
0.234

$$$$
>  <changes>
U21C C24G

>  <reported.measurement>
0.223

$$$$
>  <changes>
G2U

>  <reported.measurement>
0.0871

$$$$
>  <changes>
G3C G14U

>  <reported.measurement>
0.0909

$$$$
>  <changes>
G1U C32U

>  <reported.measurement>
0.157

$$$$
>  <changes>
C6A A42C

>  <reported.measurement>
0.221

$$$$
>  <changes>
A23U U43A

>  <reported.measurement>
0.954

$$$$
>  <changes>
G31C C35A

>  <reported.measurement>
0.241

$$$$
>  <changes>
C24U U53C

>  <reported.measurement>
0.53

$$$$
>  <changes>
U67C U69A

>  <reported.measurement>
1.07

$$$$
>  <changes>
C24G G30U

>  <reported.measurement>
0.173

$$$$
